Each recorded value in this set is attributed to PubChem BioAssay AID1159580.

assay: chemical genetic growth profiling, strain panel (AID 1159580);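 further: tested at 20 µM; growth read once vehicle control cultures reached saturation at 30 °C; lower values mean less growth of the strain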; conditions: S. cerevisiae deletion strains, growth OD, locus YFR019W, strain FAB1, active compounds read low
The campaign covered roughly 5,500 compounds. About 2,000 (36%) were called active. Roughly 18% stayed inconclusive and do not appear here. The list shows a part of the results.
The label is True for normalized growth below 0.9 and False for normalized growth equal to or exceeding 0.9.

COc1cc(Br)cc(C=Nc2ccc(Sc3ccccc3)nc2Sc2ccccc2)c1O : False
CCOC(=O)N/N=C\c1cc(Cl)cc(Cl)c1O : True
CC(NC(=S)N/N=C\c1ccccc1O)c1ccccc1 (centres undefined) : False
FC(F)(F)c1ccc(N2CCc3ccccc3C2)c(NC(=S)Nc2cc(Cl)cc(Cl)c2)c1 : False
CCCCNC(=S)N/N=C\c1cc(Cl)cc(Cl)c1O : True

Then there is this compound:
**Query** Take the compound `CC(C)(C)NC(=S)N/N=C\c1ccccc1O` and say whether its normalized growth is less than 0.9.
**Result** False
